Tested on: Erysiphe graminis—ERYSGT
TEST: Powdery Mildew of Wheat, in vivo whole plant, 24 Hour Protectant
RUN_PARAMETERS: Erysiphe; wheat plants sprayed at 100 ppm, inoculated after 24 hours; control of fungal infection vs untreated plants; read-out: ERYSGT in vivo 1 Day Protectant

COMPOUND | pest or weed control at 100 ppm
O=C(NC(Cc1ccccc1)c1ccccc1)c1nc(Br)ccc1O (stereo not drawn) | < 25%
CC1(C)CC(NC(=O)c2ccncc2O)CC(C)(C)C1 | < 25%
Cc1cc(C)c(C(=O)NC2CC(C)(C)CC(C)(C)C2)c(O)n1 | < 25%
CC(NC(=O)c1nc(Br)ccc1O)c1ccc(Cl)cc1 (stereo not drawn) | < 25%
CC1(C)CC(NC(=O)c2cnccc2O)CC(C)(C)C1 | < 25%
CSc1nnc(C(=O)NC2CC(C)(C)CC(C)(C)C2)c(O)n1 | < 25%
Cc1ncc(C(=O)NC2CC(C)(C)CC(C)(C)C2)c(O)n1 | < 25%
O=C(NCc1ccccc1)c1ccncc1O | < 25%
Cc1nc(O)c(C(=O)N[C@H]2COC(=O)[C@H](Cc3ccccc3)[C@@H](OC(=O)C(C)C)[C@H](C)OC2=O)cc1Cl | 25 to 74%

----------
Test system: Erysiphe graminis—ERYSGT
TEST: Powdery Mildew of Wheat, in vivo whole plant, 24 Hour Protectant
RUN_PARAMETERS: Erysiphe; 100 ppm spray, wheat, 24 hour protectant; control of fungal infection vs untreated plants; read-out: ERYSGT in vivo 1 Day Protectant
METRIC: pest or weed control at 100 ppm

COMPOUND | OBSERVED_VALUE
COc1ccnc(C(=O)Nc2ccccc2Oc2ccc(C)cc2)c1O | < 25%
COc1ccnc(C(=O)N[C@H]2COC(=O)[C@H](Cc3ccccc3)[C@@H](OC(=O)/C=C(\C)CCC=C(C)C)[C@H](C)OC2=O)c1O | < 25%
COc1ccnc(C(=O)NC2COC(=O)CC(c3ccccc3)C(=O)OC2)c1O (stereo not shown) | < 25%
COc1ccnc(C(=O)N[C@@H](COCc2ccccc2)C(=O)O[C@@H](C)[C@H](OC(=O)C(C)C)[C@@H](Cc2ccccc2)C(=O)OCc2ccccc2)c1O | 25 to 74%
COc1ccnc(C(=O)Nc2ccc(NC(=O)c3cccc(C(F)(F)F)c3)cc2)c1O | < 25%
COC(=O)C(COC(=O)COCc1ccccc1)NC(=O)c1nccc(OC)c1O (stereo not shown) | < 25%
COc1ccnc(C(=O)Nc2cccc(Oc3ccc(C)cc3)c2)c1O | < 25%
COc1ccnc(C(=O)Nc2cccc(Sc3ccc(C(F)(F)F)cc3)c2)c1O | < 25%
COc1ccnc(C(=O)N[C@H]2CC(=O)OCC(NC(=O)OC(C)(C)C)COC2=O)c1O (stereo partly shown) | 25 to 74%
COCc1cc(Oc2ccc(C(F)(F)F)cc2)ccc1NC(=O)c1nccc(OC)c1O | 25 to 74%
COc1ccnc(C(=O)NC(COC(=O)C(Cc2ccccc2)C(C)OC(=O)C(C)C)C(=O)OC(C)C)c1O (stereo not shown) | < 25%
COC(=O)C(COC(=O)C(C)c1ccccc1)NC(=O)c1nccc(OC)c1O (stereo not shown) | 25 to 74%
COc1ccnc(C(=O)N[C@H]2COC(=O)[C@H](Cc3ccccc3)[C@@H](OC(=O)OC(C)C)[C@H](C)OC2=O)c1O | < 25%
COC(=O)C(COC(=O)CC(C)OC(=O)C(C)C)NC(=O)c1nccc(OC)c1O (stereo not shown) | < 25%
COc1ccnc(C(=O)Nc2ccc(C(=O)Oc3ccc(C(F)(F)F)cc3)cc2)c1O | < 25%
COc1ccnc(C(=O)NC2COC(=O)[C@H]3CCCC[C@@H]3C(=O)OC2)c1O | < 25%

----------
Listing: melting point of selected compounds

COMPOUND | melting point
COc1ccnc(C(=O)NC2CC(C)(C)C(OC(=O)c3cccc(Cl)n3)C(C)(C)C2)c1O (stereo not shown) | 55 to 65 °C
CC1(C)CC(NC(=O)c2nscc2O)CC(C)(C)C1 | 121 to 125 °C
CCC(=O)Oc1c(OC)ccnc1C(=O)N[C@H]1COC(=O)[C@H](Cc2ccccc2)[C@@H](OC(=O)C(C)C)[C@H](C)OC1=O | 171 to 172 °C
COc1ccnc(C(=O)N[C@H]2COC(=O)[C@H](Cc3ccccc3)[C@@H](OC(=O)C(C)C)[C@H](C)OC2=O)c1OS(C)(=O)=O | 189 to 194 °C
O=C(NC1CCCCCCC1)c1ncccc1O | 63 to 64 °C
COc1ccnc(C(=O)Nc2ccc(C(=O)Oc3cccc(C(F)(F)F)c3)cc2)c1O | 196 °C (dec.)
Cc1ncc(C(=O)N[C@H]2COC(=O)[C@H](Cc3ccccc3)[C@@H](OC(=O)C(C)C)[C@H](C)OC2=O)c(O)n1 | 220 °C (dec.)

----------
Listing: pest or weed control at 100 ppm of selected molecules
Test system: Erysiphe graminis—ERYSGT
TEST: Powdery Mildew of Wheat, in vivo whole plant, 24 Hour Protectant
RUN_PARAMETERS: Erysiphe; 100 ppm spray, wheat, 24 hour protectant; control of fungal infection vs untreated plants; read-out: ERYSGT in vivo 1 Day Protectant

MOLECULE | TARGET_ENTITY | pest or weed control at 100 ppm
COc1ccnc(C(=O)Nc2cccc(NC(=O)c3ccc(C(F)(F)F)cc3)c2)c1O | Erysiphe graminis—ERYSGT | < 25%
CO/N=C(/c1ccc(NC(=O)c2nccc(OC)c2O)cc1)c1cccc(C(F)(F)F)c1 | Erysiphe graminis—ERYSGT | 25 to 74%
COc1ccnc(C(=O)N[C@H]2COC(=O)[C@H](Cc3ccccc3)C[C@H](C)OC2=O)c1O | Erysiphe graminis—ERYSGT | < 25%
COc1ccnc(C(=O)N[C@@H]2C(=O)O[C@@H](C)C[C@@H](C)C(=O)O[C@@H]2C)c1O | Erysiphe graminis—ERYSGT | < 25%
CCOC(=O)c1cc(Oc2ccc(C(F)(F)F)cc2)ccc1NC(=O)c1nccc(OC)c1O | Erysiphe graminis—ERYSGT | < 25%
COc1ccnc(C(=O)Nc2ccc(C(=O)c3ccc(C(F)(F)F)cc3)cc2)c1O | Erysiphe graminis—ERYSGT | 25 to 74%
COc1ccnc(C(=O)NC(C(=O)OCC(C)C)C(C)OC(=O)C(C)Cc2ccccc2)c1O (stereo not shown) | Erysiphe graminis—ERYSGT | < 25%
COc1ccnc(C(=O)N[C@@H](Cc2ccc(OCc3ccccc3)cc2)C(=O)OCc2ccccc2)c1O | Erysiphe graminis—ERYSGT | < 25%
COc1ccnc(C(=O)Nc2cccc(OC3CC(C)(C)OC(C)(C)C3)c2)c1O | Erysiphe graminis—ERYSGT | 25 to 74%
COc1ccnc(C(=O)N[C@H]2COC(=O)[C@H](Cc3ccccc3)[C@@H](OC(=O)c3ccccc3)[C@H](C)OC2=O)c1O | Erysiphe graminis—ERYSGT | < 25%
COc1ccc(Oc2ccc(NC(=O)c3nccc(OC)c3O)cc2)cc1 | Erysiphe graminis—ERYSGT | < 25%
CCCCCCCCCCCCCCCCCC(=O)O[C@H]1[C@H](C)OC(=O)[C@@H](NC(=O)c2nccc(OC)c2O)COC(=O)[C@@H]1Cc1ccccc1 | Erysiphe graminis—ERYSGT | < 25%
COc1ccnc(C(=O)N[C@@H]2OC[C@@H](OC(C)=O)[C@H](OC(C)=O)[C@H]2OC(C)=O)c1O | Erysiphe graminis—ERYSGT | < 25%
COc1ccnc(C(=O)NC2O[C@H](CO)[C@H]3OC(C)(C)O[C@@H]23)c1O (stereo partly shown) | Erysiphe graminis—ERYSGT | < 25%
COC(=O)C(CO)NC(=O)c1nccc(OC)c1O (stereo not shown) | Erysiphe graminis—ERYSGT | 25 to 74%
COc1ccnc(C(=O)Nc2ccc(C(=O)c3cccc(C(F)(F)F)c3)cc2)c1O | Erysiphe graminis—ERYSGT | < 25%

----------
Listing: melting point of selected molecules

SMILES_ENTRY | melting point
COc1ccnc(C(=O)N[C@H]2COC(=O)[C@H](Cc3ccccc3)[C@@H](OC(=O)C(C)C)[C@H](C)OC2=O)c1OC(=O)C1CCC1 | 176 to 177 °C
COc1ccnc(C(=O)N[C@H]2COC(=O)[C@H](Cc3ccccc3)[C@@H](OC(=O)C(C)C)[C@H](C)OC2=O)c1OS(=O)(=O)c1ccc(C)cc1 | 153 to 155 °C
CCOc1ccnc(C(=O)Nc2ccc(Oc3cccc(C(F)(F)F)c3)cc2)c1O | 118 to 121 °C
COc1ccnc(C(=O)Nc2ccc(Oc3cccc(C(F)(F)F)c3)nc2)c1O | 193 to 195 °C
COc1ccnc(C(=O)Nc2cccc(Oc3ccc(C(F)(F)F)cc3)n2)c1O | 149 to 151 °C
COc1ccnc(C(=O)Nc2ccc(Oc3ccc(C(F)(F)F)cc3)cc2)c1OS(C)(=O)=O | 177 to 180 °C
O=C(Nc1cccc(Cl)c1)c1ncccc1O | 131 to 132 °C
COc1cc(NC(=O)c2ncccc2O)cc(OC)c1 | 127 to 129 °C
